Sourced from patent US5817756A

Record form. Attribute: pKi. Fill in for each entry.
Target: human bradykinin B2 receptor (Homo sapiens, UniProt P30411)
Construct: The HindIII/XbaI fragment of one full-length clone, 126A, was inserted into pcDNAI neo vector; expressed in transfected cells
Sequence (P30411 whole entry, the tested form may be a part): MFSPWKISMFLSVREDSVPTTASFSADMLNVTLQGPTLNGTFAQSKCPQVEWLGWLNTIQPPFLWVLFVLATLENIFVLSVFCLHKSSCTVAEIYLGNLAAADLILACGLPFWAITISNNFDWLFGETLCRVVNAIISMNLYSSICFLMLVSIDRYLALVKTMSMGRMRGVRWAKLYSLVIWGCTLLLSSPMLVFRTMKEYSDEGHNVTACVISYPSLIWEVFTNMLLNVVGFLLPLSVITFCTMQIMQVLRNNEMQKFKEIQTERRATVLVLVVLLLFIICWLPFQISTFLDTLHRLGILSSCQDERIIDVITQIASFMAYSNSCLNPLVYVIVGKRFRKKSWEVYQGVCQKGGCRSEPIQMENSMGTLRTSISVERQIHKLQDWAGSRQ
Assay: Radioligand binding, H2O.2 cell membranes, 3H-NPC17731
Conditions: Table 1; 3H-NPC17731; read-out: Radioligand Binding Human 3H17731
Starred links: 1 amine or outer side, 2 acyl side, 3 side chain; linkers in the order of their positions; H or OH if unused. Non-standard residues stand in square brackets, D forms with d. Residues, ends and D or L forms follow the SMILES beside them. X3 = O=C(Cn1c(=O)n(C2CCN([*:1])CC2)c2ccccc21)[*:2]; Oic = O=C(O)[C@@H]1C[C@@H]2CCCC[C@@H]2N1; X1 = O=C(C/C=C/c1ccccc1CN[*:1])[*:2]; X6 = O=C(/C=C/c1ccccc1CCN[*:1])[*:2]; dTic = O=C(O)[C@H]1Cc2ccccc2CN1
One number for each entry, as −log10 of the molar value.

// solved cases for pKi follow
N=C(N)NCCC[C@@H](N)C(=O)N[C@@H](CCCNC(=N)N)C(=O)N1CCC(n2c(=O)n(CC(=O)N[C@@H](CO)C(=O)N3Cc4ccccc4C[C@@H]3C(=O)N3[C@H](C(=O)N[C@@H](CCCNC(=N)N)C(=O)O)C[C@@H]4CCCC[C@@H]43)c3ccccc32)CC1 (H-[dR]R[X3]S[dTic][Oic]R-OH)
7.24
N=C(N)NCCC[C@@H](N)C(=O)N[C@@H](CCCNC(=N)N)C(=O)NCc1ccccc1/C=C/CC(=O)N[C@@H](CO)C(=O)N1Cc2ccccc2C[C@@H]1C(=O)N1[C@H](C(=O)N[C@@H](CCCNC(=N)N)C(=O)O)C[C@@H]2CCCC[C@@H]21 (H-[dR]R[X1]S[dTic][Oic]R-OH)
7.77

Would you kindly look at the next entry?
Report pKi from human bradykinin B2 receptor (Homo sapiens, UniProt P30411) testing of N=C(N)NCCC[C@@H](N)C(=O)N[C@@H](CCCNC(=N)N)C(=O)NCCc1ccccc1/C=C/C(=O)N[C@@H](CO)C(=O)N1Cc2ccccc2C[C@@H]1C(=O)N1[C@H](C(=O)N[C@@H](CCCNC(=N)N)C(=O)O)C[C@@H]2CCCC[C@@H]21 (H-[dR]R[X6]S[dTic][Oic]R-OH)
7.64
